Would you kindly list pKd for each of these binders?
target-or-system: T1, human TIGIT protein (human, UniProt Q495A1 22-141, limits assumed)
T1 construct: Recombinant protein (Genentech) used in ELISA screening and as SPR analyte; also called TIGIT antigen
T1 sequence: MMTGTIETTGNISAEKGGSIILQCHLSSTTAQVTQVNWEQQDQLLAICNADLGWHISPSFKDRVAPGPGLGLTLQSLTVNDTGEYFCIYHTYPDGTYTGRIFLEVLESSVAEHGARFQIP
assay-explanation: SPR, captured mAb
Numbers only, as −log10 of the molar value.

Some entries whose results are on file:
>  <binder>
h7E7.L1H8 (antibody, V domains shown, VH: T93A against h7E7.L1H1; FR/HVR pieces) VH: EVQLVQSGAEVKKPGASVKVSCKASGYTFTEYSIYWVRQAPGQRLEIIGRIDPKNGRTYYVDKFKNRATLTADTSASTAYMELSSLRSEDTAVYFCARIYGFYFDFWGQGTLVTVSS VL: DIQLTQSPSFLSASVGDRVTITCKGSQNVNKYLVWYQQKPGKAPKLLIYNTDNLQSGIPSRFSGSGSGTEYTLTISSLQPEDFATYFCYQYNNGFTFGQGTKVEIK

>  <value-measured>
9.44

$$$$
>  <binder>
h7E7.L1H3 (antibody, V domains shown, VH: I48M against h7E7.L1H1; FR/HVR pieces) VH: EVQLVQSGAEVKKPGASVKVSCKASGYTFTEYSIYWVRQAPGQRLEIMGRIDPKNGRTYYVDKFKNRATLTADTSASTAYMELSSLRSEDTAVYFCTRIYGFYFDFWGQGTLVTVSS VL: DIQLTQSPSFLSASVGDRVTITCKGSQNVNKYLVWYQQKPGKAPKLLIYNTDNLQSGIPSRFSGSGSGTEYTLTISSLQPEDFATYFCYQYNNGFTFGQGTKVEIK

>  <value-measured>
9.42

$$$$

Give pKd for each listed item.
1. h7E7.L1H7 (antibody, V domains shown, VH: F91Y against h7E7.L1H1; FR/HVR pieces) VH: EVQLVQSGAEVKKPGASVKVSCKASGYTFTEYSIYWVRQAPGQRLEIIGRIDPKNGRTYYVDKFKNRATLTADTSASTAYMELSSLRSEDTAVYYCTRIYGFYFDFWGQGTLVTVSS VL: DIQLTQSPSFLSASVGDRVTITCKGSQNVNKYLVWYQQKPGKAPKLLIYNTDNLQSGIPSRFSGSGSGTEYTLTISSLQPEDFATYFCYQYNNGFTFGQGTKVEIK
2. rat10A5 (antibody, V domains shown, SD rat-derived; rat V domains as FR/HVR pieces; also called 1.10A5; Chimeric 1.10A5) VH: QVSLKESGPGILQPSHTLSLTCSFSGFSLTTYGMGVSWIRQPSEKGLEWLASIWWNGNTYYNPSLRSRLTVSKDTSNDQAFLNVTSVDTTDTATYYCAHTGGAVITWFAYWGQGTLVTVSS VL: NIVMTQSPKSMSISIGDRVTMNCKASQSVGKNIAWYQQKTGQSPQLLIYYASNRYTGVPDRFTGGGSGTDFTLTINSVQAEDAAFFYCQHIYNSPYPFGTGTKLEIK
3. h7E7.L2H1 (antibody, V domains shown, VL: I58V against h7E7.L1H1; FR/HVR pieces) VH: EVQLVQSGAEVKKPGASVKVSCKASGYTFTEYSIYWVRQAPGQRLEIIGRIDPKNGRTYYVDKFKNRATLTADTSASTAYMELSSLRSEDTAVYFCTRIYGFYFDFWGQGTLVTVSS VL: DIQLTQSPSFLSASVGDRVTITCKGSQNVNKYLVWYQQKPGKAPKLLIYNTDNLQSGVPSRFSGSGSGTEYTLTISSLQPEDFATYFCYQYNNGFTFGQGTKVEIK

9.51
10.05
9.62
